Give measured %Inh for each item. Keep answers brief.
System: SRPK3;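 also: KINOMEscan kinase panel screen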
settings: concentration: 1 μM, replicates: in singlicate; n = 1
Return type: number; implicit unit %.

Incoming: Kindly indicate its recorded %Inh. Item: Cc1cc(NCC(c2ccccc2)c2ccccc2)nc(NCc2ccc(C(F)(F)F)cc2)n1 [GW497681]
Outgoing: 0

Incoming: Note down %Inh recorded for Cc1cccc(-c2cc(Nc3ccncc3)c3ccccc3n2)n1 [GSK223675]
Outgoing: 0

Incoming: Supply reported %Inh belonging to this molecule: CS(=O)(=O)c1ccc(-c2nc3n(c2-c2ccncc2)CCC3)cc1 [SKF-105942]
Outgoing: 22

Incoming: Fill in %Inh for record Cc1ccc(C(=O)Nc2ccc(Nc3ccnc4cc(-c5ccccn5)ccc34)cc2O)cc1.Cl [GW440146]
Outgoing: 3

Incoming: State, in one line, measured %Inh of Cl.NC(=O)c1cccc(Nc2nccc(Nc3ccc(Oc4cccc(Cl)c4)c(Cl)c3)n2)c1 [GW659008]
Outgoing: 13

Incoming: Fill in reported %Inh for this entry: O=C(Nc1ccc2c(c1)OCO2)NC1CCN(c2ccnc(Nc3ccc(F)cc3)n2)C1 (stereo not drawn) [GSK1379724]
Outgoing: 5

Incoming: # return recorded %Inh for input O=C(O)COc1ncnc2cc(-c3ccc4[nH]ncc4c3)sc12
Outgoing: 1

Incoming: Look up %Inh of COc1ccc(CNC(=O)NC2CCN(c3ccnc(Nc4cc(OC)c(OC)c(OC)c4)n3)C2)cc1 (stereo not drawn) [GSK1379748] and report it.
Outgoing: 0

Incoming: Dear colleague, please send me the reported %Inh for CC(=O)Nc1nc2cnc(Nc3cc(NC(=O)c4cccc(CCC#N)c4)ccc3C)nc2s1 when you can.
Outgoing: 0

Incoming: Please look at this molecule and report its %Inh: Cc1cccc(-c2nc(Nc3ccc4[nH]ncc4c3)c3ccccc3n2)n1 [GW857175]
Outgoing: 28

Incoming: Give recorded %Inh. Cc1cccc(-c2nc(C)cc(Nc3ccncc3)n2)n1 [GSK257997]
Outgoing: 11

Incoming: Answer with the recorded %Inh of Cl.c1ccc(-c2n[nH]cc2-c2ccnc(-c3ccc(CN4CCOCC4)cc3)c2)nc1 [GW776245] only.
Outgoing: 41

Incoming: Specify measured %Inh for COc1ccc(Nc2nccc(NCCNC(=O)Nc3ccccc3F)n2)cc1 [GSK1379901] .
Outgoing: 0

Incoming: Check the records and state %Inh for O=C(Nc1n[nH]c2nc(-c3nccs3)c(Br)cc12)C1CCCC1 [SB-742609]
Outgoing: 13

Incoming: Give a short answer stating reported %Inh for Clc1cc(Cl)cc(Nc2ccnc(Nc3cc(Cl)cc(Cl)c3)n2)c1 [GSK175726] .
Outgoing: 0

Incoming: Please give the documented %Inh of CN1C(=O)C(Nc2ccc(Cl)c(C(=O)O)c2)=C(c2ccc(Cl)cc2)C1=O [SB-404290]
Outgoing: 15

Incoming: For the molecule Cl.Oc1ccc(-c2nc(-c3ccccc3)[nH]c2-c2ccncc2)cc1 [SB-428218] , give its measured %Inh value.
Outgoing: 3

Incoming: Let me know recorded %Inh for Cn1ccc2ncnc(Oc3cccc(C(=O)Nc4ccccc4)c3)c21 , thanks.
Outgoing: 0

Incoming: Please list %Inh recorded for the molecule O=C(Nc1n[nH]c2cc(-c3cccc(F)c3F)ccc12)C1CC1 [SB-733894]
Outgoing: 5

Incoming: State its %Inh: Cn1ccc2ncnc(Oc3ccc(NC(=O)Nc4ccccc4)cc3)c21
Outgoing: 9

Incoming: Report %Inh, nothing else, for this molecule: Cc1cccc(-c2nc(-c3ccc(S(C)(=O)=O)cc3)sc2-c2ccnc(NCCc3ccccc3)c2)c1
Outgoing: 0

Incoming: Item Cc1csc(-c2nc(Nc3ccncc3)c3ccccc3n2)n1 [GW869640] : provide %Inh
Outgoing: 39

Incoming: Please supply the value of reported %Inh for the item COc1cc2ncnc(Nc3ccc4nc(-c5ccccc5)[nH]c4c3)c2cc1OC.Cl [GW282450]
Outgoing: 17

Incoming: Give %Inh for O=C1NC(=O)C(N2CCc3ccccc32)=C1c1ccccc1Cl [SB-373598]
Outgoing: 33

Incoming: Return reported %Inh. Input molecule: Cn1ccc2ncnc(Oc3ccc(Nc4nc5ccccc5[nH]4)cc3)c21
Outgoing: 0

Incoming: Specify %Inh for CSc1nn2c(=O)cc(N3CCOCC3)nc2n1Cc1cccc(C(F)(F)F)c1C [GSK2363608] and stop.
Outgoing: 0

Incoming: Could you please provide reported %Inh for O=S(=O)(c1ccc(-c2ccnc3[nH]ccc23)cc1)N1CCCC1 [GSK846226] ? Thanks!
Outgoing: 3

Incoming: Given COc1cccc(NC(=O)NC2CCN(c3ccnc(Nc4ccc(F)cc4)n3)C2)c1 (stereo not drawn) [GSK1379721] , respond with its %Inh.
Outgoing: 0

Incoming: In one line, give reported %Inh of the entry CS(=O)(=O)c1ccc(-c2c(-c3ncn[nH]3)sc(N3CCOCC3)c2C#N)cc1 .
Outgoing: 0

Incoming: Output %Inh of O=C(Nc1ccccc1)Nc1cccc(Oc2ccc3nccn3n2)c1
Outgoing: 29

Incoming: Identify measured %Inh corresponding to COc1cc(Nc2nccc(N3CCC(NC(=O)Nc4cc(C)ccc4C)C3)n2)cc(OC)c1OC (stereo not drawn) [GSK1379762]
Outgoing: 29

Incoming: Give the measured %Inh for COc1ccc(Nc2nccc(-c3cccc(NC(=O)c4cc5cc(F)ccc5[nH]4)c3)n2)cc1 [GSK1229782]
Outgoing: 0

Incoming: // fetch %Inh given entry COc1ccc2nc(-c3cccc(C)n3)nc(Nc3ccncc3)c2c1 [GSK204919]
Outgoing: 16

Incoming: Item O=c1cc(N2CCOCC2)nc2n(Cc3cccc(Cl)c3Cl)ccn12 [GSK2286295] : provide %Inh
Outgoing: 0

Incoming: Return reported %Inh. Input molecule: COC(=O)c1c(-c2ccccc2)c2cc(C(=O)O)ccc2c(=O)n1Cc1ccccc1
Outgoing: 0

Incoming: Please give the documented %Inh of CN(C)CCN(C)C(=O)c1cc(-c2ccncc2)c(-c2ccc(Cl)c(O)c2)o1.Cl.Cl [SB-710397]
Outgoing: 0
